- System: XF 498 CNS
- Assay details: NCI tumour cell line growth inhibition, 48 h
Recorded metric: TGI

Please look at the items below and tell me TGI for each one, in order.
1. CP(C)C.[Ag][I]
2. CC1=NN(c2ccccc2)C(=O)C1N=Nc1ccc(Br)c(C)c1 (stereo unspecified)
3. Cc1cc(=O)[nH]c(CNC(=O)Cc2ccccc2)n1
4. CO[C@H](c1ccccc1)[C@H](C)N(C)c1ccc2ccccc2c1C1=NC(C)(C)CO1

30.9 µM
> 100 µM
> 100 µM
33.5 µM

// for each compound in input: emit TGI
1. CCOC(=O)C1CC/C(=C(/C#N)C(=O)OC)N1 (stereo unspecified)
2. N#CC12Cc3ccc4c(c3-c3cccc(c31)CCN2C(=O)c1ccccc1)OCO4 (stereo unspecified)

> 100 µM
> 100 µM
